Organism: Homo sapiens
protocolSummary: Selectivity index, ratio of IC50 for recombinant AKR1C2 (unknown origin) to IC50 for recombinant AKR1C3 (unknown origin)
Examples of compounds with documented Ratio IC50 follow.
measure: Ratio IC50

> print(dat)
                             compoundsmiles  observedvalue
1   O=C(O)c1ccccc1Nc1ccc(S(F)(F)(F)(F)F)cc1            4.2
2   O=C(O)c1ccccc1Nc1cccc(S(F)(F)(F)(F)F)c1            4.7
3  O=C(O)c1cccc(Nc2cccc(S(F)(F)(F)(F)F)c2)c1            163
4  O=C(O)c1cccc(Nc2ccc(S(F)(F)(F)(F)F)cc2)c1            571

Source: ChEMBL document CHEMBL3621079
